assay-endpoint: melting point (°C)

- compound: "O=C(O)c1ccccc1Cl"
  assay-endpoint: "melting point"
  recorded-measurement: 140
- compound: "CC(=O)/C=C/c1ccccc1 [trans-4-phenyl-3-buten-2-one]"
  assay-endpoint: "melting point"
  recorded-measurement: 41
- compound: "Brc1ccc2ccccc2c1"
  assay-endpoint: "melting point"
  recorded-measurement: 55
- compound: "CC(=O)OC1CCC2C3CCC4=CC(=O)CCC4(C)C3CCC12C (centres undefined) [3-oxoandrost-4-en-17-yl acetate]"
  assay-endpoint: "melting point"
  recorded-measurement: 140

====

Entry class follows melting point: bin 1 (below 50 °C), bin 2 (50 °C to below 100 °C), bin 3 (100 °C or more)

- molecule: "CCCCc1ccc(/N=N/c2ccc(OCCC)cc2)cc1 [(E)-1-(4-butylphenyl)-2-(4-propoxyphenyl)diazene]"
  discrete-label: "bin 2"
- molecule: "CCOC(=O)c1ccc(Cl)c([N+](=O)[O-])c1 [ethyl 4-chloro-3-nitrobenzoate]"
  discrete-label: "bin 2"
- molecule: "Oc1c(Br)cc(Br)c2cccnc12 [5,7-dibromo-8-hydroxyquinoline]"
  discrete-label: "bin 3"
- molecule: "CC(C)(C)OO [tert-Butyl hydroperoxide]"
  discrete-label: "bin 1"
- molecule: "OCc1ccc(F)c(B(O)O)c1 [2-fluoro-5-(hydroxymethyl)benzeneboronic acid]"
  discrete-label: "bin 2"
- molecule: "c1cscn1"
  discrete-label: "bin 1"
- molecule: "[O-][n+]1cccc(Br)c1 [3-bromopyridine n-oxide]"
  discrete-label: "bin 1"
- molecule: "Cc1ncccc1O [3-hydroxy-2-methylpyridine]"
  discrete-label: "bin 3"
- molecule: "CCNCCO [2-(ethylamino)ethanol]"
  discrete-label: "bin 1"
- molecule: "CCCCCCCCCCCCCCCCCCCCCCCCCCCCCC"
  discrete-label: "bin 2"
- molecule: "O=C(O)c1ccc([N+](=O)[O-])cc1Cl"
  discrete-label: "bin 3"
- molecule: "Cc1ccc(N)c(N)c1"
  discrete-label: "bin 2"
- molecule: "ClC(Cl)(Cl)C(Cl)(Cl)Cl"
  discrete-label: "bin 3"
- molecule: "Oc1cccc(Cl)c1 [m-chlorophenol]"
  discrete-label: "bin 1"
- molecule: "N#CNC(=N)N [dicyandiamide]"
  discrete-label: "bin 3"
- molecule: "Cc1ccc(I)cc1N"
  discrete-label: "bin 1"
- molecule: "C=COCC"
  discrete-label: "bin 1"
- molecule: "C1O[C@@H]1[C@H]1CO1 [butadiene diepoxide]"
  discrete-label: "bin 1"
- molecule: "C=CCC(CC)(CC)C(N)=O"
  discrete-label: "bin 2"
- molecule: "Cc1cc([N+](=O)[O-])ccc1Cl"
  discrete-label: "bin 1"
- molecule: "O=C1COC(c2ccc(C(F)(F)F)cc2)CN1 (stereo not drawn) [flumetramide]"
  discrete-label: "bin 3"
- molecule: "O=C5\\C=C4/C(C3CCC2(C(CCC2OC(=O)c1ccccc1)C3CC4)C)(C)CC5 (stereo not drawn) [Testosterone benzoate]"
  discrete-label: "bin 3"
- molecule: "NC(=O)c1cc(F)cc(F)c1 [3,5-difluorobenzamide]"
  discrete-label: "bin 3"
- molecule: "C=C(F)Cl"
  discrete-label: "bin 1"
- molecule: "O=[N+]([O-])c1cc([N+](=O)[O-])c(C(Br)=Cc2ccccc2)cc1/C=C\\c1ccccc1"
  discrete-label: "bin 3"
- molecule: "CNC(=O)c1cc([N+](=O)[O-])cc([N+](=O)[O-])c1 [benzamide, N-methyl-3,5-dinitro-]"
  discrete-label: "bin 3"
- molecule: "C(=C\\c1ccccc1)/c1ccccc1 [trans-Stilbene]"
  discrete-label: "bin 3"
- molecule: "Cc1ccc(C#N)cc1C"
  discrete-label: "bin 2"
- molecule: "O=C(c1ccccc1)C(Cl)Cl"
  discrete-label: "bin 1"
- molecule: "Cc1cccc(OCC(O)CNC(C)(C)C)c1C (stereo not drawn)"
  discrete-label: "bin 2"
- molecule: "CC(=O)S[C@@H]1CC2=CC(=O)CC[C@]2(C)[C@H]2CC[C@@]3(C)[C@@H](CC[C@@]34CCC(=O)O4)[C@H]12 [Spironolactone]"
  discrete-label: "bin 3"
- molecule: "Sc1nc2ccccc2[nH]1"
  discrete-label: "bin 3"
- molecule: "Cc1ccc(CNC2=CC(=O)c3ccccc3C2=O)nc1 [2-{[(5-methylpyridin-2-yl)methyl]amino}naphthalene-1,4-dione]"
  discrete-label: "bin 3"
- molecule: "Cc1c(C)c(C)c(C)c(C)c1C"
  discrete-label: "bin 3"
- molecule: "Nc1c([N+](=O)[O-])cccc1[N+](=O)[O-]"
  discrete-label: "bin 3"
